assay: NCI Yeast Anticancer Drug Screen. Data for the mlh1 rad18 strain (AID 175); settings: S. cerevisiae mlh1 rad18 strain growth inhibition; at 50.0 µM; active compounds read high
About 79,000 compounds went through this panel and 15% of them were active in at least one assay; those are over-represented in the sample as a whole.
Recorded growth inhibition values for a group of compounds are listed next.
value.kind: growth inhibition (%)

compound: Cn1c(N)c(/C=C/C(=O)Oc2ccccc2)c(=O)n(C)c1=O
value.observed: -43.1
--
compound: CCOC1C=CCCO1 (stereo not given)
value.observed: 5.65
--
compound: C=CN1C(=O)NC2(CCCCC2)C1=O
value.observed: -25.6
--
compound: c1ccc(-c2cccc(-c3cccc(-c4ccccc4)c3)c2)cc1
value.observed: -6.65
--
compound: CCO/C(=C/[S+](C)C)c1ccccc1
value.observed: 5.35
--
compound: ClSC(c1ccccc1)(c1ccccc1)c1ccccc1
value.observed: 33.4
--
compound: O=c1[nH][nH]c(=O)c2c1ncn2Cc1ccccc1
value.observed: -25.5
--
compound: NNc1cn[nH]c(=O)c1Cl
value.observed: -26.4
--
compound: NC(N)=Nc1ccc(Sc2ccc(N=C(N)N)cc2)cc1
value.observed: -26.5
--
compound: COc1cc(-c2nnc3n2NC=C(C(=O)O)S3)cc(OC)c1OC
value.observed: 21.8
--
compound: N#C/C(=C\c1ccccc1)c1cccc(Br)c1
value.observed: -1
--
compound: COc1ccc2oc(=O)[nH]c2c1
value.observed: -4.5
--
compound: CCOC(=O)C1Cc2c(n(C3CCCCC3)c(=O)n(C)c2=O)OC1c1ccccc1 (stereo not given)
value.observed: -8.05
--
compound: O=C(O)C(=O)C(c1ccccc1)c1ccccc1
value.observed: -5.3
--
compound: COC(=O)c1ccccc1NC(=O)Nc1ccc(F)c([N+](=O)[O-])c1
value.observed: -10.9
--
compound: Cc1nc(N)nc(C)c1N=Nc1cc(Cl)cc(Cl)c1
value.observed: -7.85
--
compound: CC(=O)NC(CCCc1ccccc1)C(=O)O (stereo not given)
value.observed: -18.9
--
compound: NN1C(=O)Cc2ccc(Cl)cc21
value.observed: 2.1
--
compound: CCCCCCCCCCCCCCCCSCCOC(=O)C1C2CCC(O2)C1C(=O)O (stereo not given)
value.observed: 37.6
--
compound: c1ccc(SCc2ccc3c(c2)OCO3)cc1
value.observed: 16.8
--
compound: ClC(Cl)=C(Cl)C1(Cl)CC1COCc1ccccc1 (stereo not given)
value.observed: -3
--
compound: O=CC(O)C(O)C(O)C1CNC(=S)O1 (stereo not given)
value.observed: 6.9
--
compound: COc1cccc(C2c3cc4c(cc3OC(N3CCOCC3)C2C)OCO4)c1OC (stereo not given)
value.observed: -6.1
--
compound: Cc1ccc(C(=O)C[N+]2(C)CCOCC2)cc1
value.observed: 20.4
--
compound: Oc1ccccc1CN1CCOCC1
value.observed: 28.5
--
compound: Cc1ncc(CO)c(Nc2ccccc2Cl)n1
value.observed: 14.4
--
compound: O=C(Sc1c(-c2ccccc2)c(=O)n(-c2ccccc2)c(=S)n1-c1ccccc1)c1ccc(Cl)cc1
value.observed: 12.8
--
compound: c1ccc(N=C(Nc2ccccc2)N2CCCC2)cc1
value.observed: -19.4
--
compound: c1ccc(CCc2cccnc2)nc1
value.observed: -1.7
--
compound: COc1cccc(C=O)c1[O-].COc1cccc(C=O)c1[O-].[Zn+2]
value.observed: 66
--
compound: CCOC(=O)CCC(NC(=O)c1ccc(Nc2cnc3cc(C(F)(F)F)ccc3n2)cc1)C(=O)OCC (stereo not given)
value.observed: -4.65
--
compound: C/C=N\C(N)=S
value.observed: 1
--
compound: O=C(NNC(=O)c1ccc(Cl)cc1Cl)c1ccc2ccccc2c1
value.observed: -0.55
--
compound: CC(O)C1OC(n2cnc3c(=O)[nH]cnc32)C(O)C1O (stereo not given)
value.observed: -22.9
--
compound: CC(=O)OCCOCNC(=S)N/N=C(\C)c1cccs1
value.observed: -8.95
--
compound: CNC(=O)NCCc1c[nH]c2ccccc12
value.observed: -40.9
--
compound: CC(=O)CC(=O)NC1CCCC1
value.observed: -13.9
--
compound: NC(=O)N/N=C/c1ccc2oc3ccccc3c2c1
value.observed: 44.5
--
compound: CCOC(=O)/C=C/C1(CCOC(C)=O)CCCCC1
value.observed: 14.9
--
compound: O=S(=O)(Cl)c1cccc2c(S(=O)(=O)Cl)cccc12
value.observed: 16.2
--
compound: Cc1cc(O)c(C(c2ccc3c(c2)OCO3)c2c(O)cc(C)[nH]c2=O)c(=O)[nH]1
value.observed: -34
--
compound: CC(C)=CCN1c2ccccc2NC(=O)CC1C (stereo not given)
value.observed: -14.9
--
compound: COc1ccc(C#N)c(-c2ccccc2)c1
value.observed: -12.3
--
compound: O=C(/C=C\c1ccccc1Cl)/C=C/c1ccccc1Cl
value.observed: 11.8
--
compound: CC(=O)OCC(OC(C)=O)C(OC(C)=O)C(OC(C)=O)C(OC(C)=O)c1cnn(-c2ccccc2)n1 (stereo not given)
value.observed: -10.6

* * *

Recorded growth inhibition values for a group of compounds are listed next.
assay: NCI Yeast Anticancer Drug Screen. Data for the sgs1 mgt1 strain (AID 161);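 further: 0% = growth of cultures given vehicle only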; conditions: S. cerevisiae sgs1 mgt1 strain, at 50.0 µM, active compounds read high
Compounds without any hit were thinned out: in the full panel of roughly 79,000, 15% have a hit. Activity calls are given as the source filed them. No stated cut-off is given here; in the data, active means growth inhibition above about 70%; inactive means the rest.

smiles.repr: c1ccc2c3c([nH]c2c1)CCCCCC3
growth inhibition: 15.1% (inactive)
--
smiles.repr: Cc1ccccc1NP1(Nc2ccccc2C)=NP(Nc2ccccc2C)(Nc2ccccc2C)=NP(Nc2ccccc2C)(Nc2ccccc2C)=NP(Nc2ccccc2C)(Nc2ccccc2C)=N1
growth inhibition: 23.6% (inactive)
--
smiles.repr: O=C(C[n+]1ccccc1-c1ccccn1)c1ccc(-c2ccccc2)cc1
growth inhibition: 22.4% (inactive)
--
smiles.repr: CCn1c(C)nc2ccccc21
growth inhibition: 2.5% (inactive)
--
smiles.repr: CCCN/C=C1\CC(=O)N(C)C1=O
growth inhibition: 2.5% (inactive)

* * *

experiment: NCI Yeast Anticancer Drug Screen. Data for the cln2 rad14 strain (AID 165);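 further: 0% = growth equal to vehicle treated cultures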; details: S. cerevisiae cln2 rad14 strain, at 50.0 µM, active compounds read high
Compounds without any hit were thinned out: in the full panel of roughly 79,000, 15% have a hit.
value.kind: growth inhibition (%)

compound: CC1=NN(C(=O)c2ccc(Cl)cc2)C(=O)/C1=C/c1ccc(O)cc1
endpoint.unit: %
value.observed: -7.55
//
compound: CCCCC1C(=O)N=C2C=CC=CN2C1=O (configuration not stated)
endpoint.unit: %
value.observed: 3.5
//
compound: Cc1ccc(-c2cs/c(=N\N=C3/CSC(=O)N3Cc3ccccc3)n2-c2ccccc2)cc1
endpoint.unit: %
value.observed: 0.35
//
compound: O=C(/C=C/c1ccc(O)cc1)OCC1OC(Oc2cc(O)c3c(c2)OC(c2ccc(O)cc2)CC3=O)C(O)C(O)C1O (configuration not stated)
endpoint.unit: %
value.observed: -16.1
//
compound: CCC1(C)N=C(N)Nc2nc3cc(C)c(C)cc3n21 (configuration not stated)
endpoint.unit: %
value.observed: 7.05
//
compound: c1csc(-c2nccc3ccccc23)c1
endpoint.unit: %
value.observed: 2.2
//
compound: C/C=C(/C)C(=O)OC12CC(C)C3(O)C(C=C(CO)C[C@]4(O)C(=O)C(C)=CC34)C1C2(C)C (some centres not stated)
endpoint.unit: %
value.observed: -0.45
//
compound: CC=C(c1ccc(OC)cc1)c1ccc(OC)cc1
endpoint.unit: %
value.observed: -46.9
//
compound: O=C1CCC2CCC1C2 (configuration not stated)
endpoint.unit: %
value.observed: 15.8
//
compound: O=C(CCc1ccc(O)cc1)c1c(O)cc(O)cc1O
endpoint.unit: %
value.observed: 12.9
//
compound: Cc1cccc(C(=O)NNC(=O)c2ccc3ccccc3c2)c1
endpoint.unit: %
value.observed: -3.6
//
compound: COc1ccc(-c2nnc(N)o2)cc1OC
endpoint.unit: %
value.observed: 6.35
//
compound: CC(C)(C)c1cc(-c2cc(C(C)(C)C)n(-c3ccccc3)n2)nn1-c1ccccc1
endpoint.unit: %
value.observed: 16
//
compound: O=C(NC(COC(=O)c1ccccc1)COC(=O)c1ccccc1)c1ccccc1
endpoint.unit: %
value.observed: 12.8
//
compound: CCC(C)(C)c1ccc(O)c(CNCCO)c1
endpoint.unit: %
value.observed: -18.9
//
compound: CC1(C)OC(=O)C(=Cc2ccc(-c3ccccc3[N+](=O)[O-])o2)C(=O)O1
endpoint.unit: %
value.observed: 23.6
//
compound: O=c1c2ccccc2[nH]c2ccc(Br)cc12
endpoint.unit: %
value.observed: -6.1
//
compound: CN1C2CCC1CC(OC(c1ccccc1)c1ccccc1)C2 (configuration not stated)
endpoint.unit: %
value.observed: 0.25
//
compound: [O-]/[N+](=C\c1ccc(OCc2ccccc2)cc1)c1ccccc1
endpoint.unit: %
value.observed: -2.65
//
compound: Cc1csc2nc(-c3ccncc3)cn12
endpoint.unit: %
value.observed: 1.4
//
compound: C(#Cc1c2ccccc2c(C#Cc2ccccc2)c2c(-c3ccccc3)cccc12)c1ccccc1
endpoint.unit: %
value.observed: 4.05
//
compound: CC1=NN2C(=O)C(c3ccccc3)SC2=NC(C)(C)C1 (configuration not stated)
endpoint.unit: %
value.observed: 26.6
//
compound: CCOC(=O)N1N=C(c2ccccc2)OC2(N3CCCC3)CCC(C(C)(C)C)CC12 (configuration not stated)
endpoint.unit: %
value.observed: -4.5
//
compound: Nc1c(-c2nc3ccccc3[nH]2)sc(=S)n1-c1ccccc1
endpoint.unit: %
value.observed: 2.2
//
compound: O=C1C2=C(OCO2)C(=O)C2=C1OCO2
endpoint.unit: %
value.observed: 3.7
//
compound: Cc1ccc(C(C)C)cc1OC(=O)NC1CCCCC1
endpoint.unit: %
value.observed: -13.2
//
compound: c1ccc(NCNC2Nc3ccccc3N2)cc1
endpoint.unit: %
value.observed: -3.35
//
compound: CN(C)CCCc1c2ccccc2nc2ccc(Cl)cc12
endpoint.unit: %
value.observed: -2.65
//
compound: O=S(=O)(c1ccc(NC(=S)NCc2ccco2)cc1)N1CCCCC1
endpoint.unit: %
value.observed: 38.3
//
compound: Cc1nc2ccc(S(=O)(=O)Nc3ccccc3Cl)cc2c(=O)n1NC(=O)CNc1ccccc1Cl
endpoint.unit: %
value.observed: 6.95
//
compound: O=[N+]([O-])c1cc(F)cc(F)c1Nc1ccccc1
endpoint.unit: %
value.observed: 3.1
//
compound: Cc1ccc2nc(-c3ccc(N)cc3)sc2c1S(=O)(=O)O
endpoint.unit: %
value.observed: 2.45
//
compound: CCCCCCCCCCCCCCCCCC(=O)Oc1c(C(C)(C)C)cc([N+](=O)[O-])c(C)c1[N+](=O)[O-]
endpoint.unit: %
value.observed: 98.9
//
compound: Cn1c([N+](=O)[O-])cnc1COc1ccc(NC(=O)CN2CCOCC2)cc1
endpoint.unit: %
value.observed: 33.2
//
compound: O=C(CCCl)NNC1=NCCCN1
endpoint.unit: %
value.observed: 23.2
//
compound: CCC(=O)OCC(OC(=O)CC)C(OC(=O)CC)C(OC(=O)CC)C(COC(=O)CC)OC(=O)CC (configuration not stated)
endpoint.unit: %
value.observed: -31.6
//
compound: CC(=O)N1C(=O)NC(=O)C1(C)c1cccs1 (configuration not stated)
endpoint.unit: %
value.observed: -75.1
